result.type: melting point (°C)
Write the answer as a number in °C, unit excluded.

INSERT INTO results (compound, result_type, unit, result_value) VALUES
  ('O=c1oc2ccccc2c(O)c1C1CC(c2ccc(-c3ccccc3)cc2)Cc2ccccc21 (centres undefined)', 'melting point', '°C', 216),
  ('CCCCCCCCCCCCCCCCCCCCCCCCCCC', 'melting point', '°C', 59.5),
  ('CC1CCCCS1 (centres undefined)', 'melting point', '°C', -58),
  ('CC(C)(Oc1ccc(CCNC(=O)c2ccc(Cl)cc2)cc1)C(=O)O', 'melting point', '°C', 186),
  ('CC(C)(C)N(CCO)CCO', 'melting point', '°C', 42);

(Q) Please give measured melting point of the following entry: CCCCCCC(C)CCC (centres undefined)
(A) -77.5

(Q) Using the record for "Cc1cc(Cl)ccc1N" , state its measured melting point.
(A) 30.3

(Q) Recall and state the measured melting point for "COc1cc(O)ccc1O" .
(A) 90

(Q) Supply recorded melting point for "CCCCCCCCCC[C@H](O)CC" here.
(A) 32

(Q) For the compound FC(F)(F)C(F)(Cl)C(F)(Cl)C(F)(F)F (centres undefined) , give its measured melting point value.
(A) -68

(Q) Supply melting point value. Item: "CC(=O)O[C@]1(C(C)=O)CC[C@H]2[C@@H]3C=C(Cl)C4=CC(=O)C=C[C@]4(C)[C@H]3CC[C@@]21C"
(A) 168

(Q) In one line, give reported melting point of the entry "CCC(CC)COC(=O)CCCCCCCC(=O)OCC(CC)CC" .
(A) -45

(Q) Note down melting point recorded for Cc1ncc([N+](=O)[O-])n1CC(O)CCl (centres undefined)
(A) 77.5

(Q) Consider the compound "O=C1C=CCO1" and give its recorded melting point.
(A) 4.5

###

result.type: melting point
Write the figure, then the unit, nothing else.

Previously resolved entries follow.
INSERT INTO measurements (compound, result_value) VALUES
  ('CN(C)CC/C=C1\c2ccccc2CSc2ccccc21', '56 °C'),
  ('O=C(O)C(Cl)CCl (configuration not stated)', '50 °C'),
  ('C=C1C[C@@]23CC[C@H]4[C@@](C)(CCC[C@@]4(C)C(=O)O[C@@H]4O[C@H](CO)[C@@H](O)[C@H](O)[C@H]4O)[C@@H]2CC[C@]1(O[C@@H]1O[C@H](CO)[C@@H](O)[C@H](O)[C@H]1O[C@@H]1O[C@H](CO)[C@@H](O)[C@H](O)[C@H]1O)C3', '198 °C');

(Q) Name the recorded melting point of the item "CCCOCC" in your answer.
(A) -128 °C

###

result.type: melting point (°C)
Use °C as the unit, but write only the number.

Worked examples, 3 compounds total:
INSERT INTO assay_data (compound, result_value) VALUES
  ('CCC1(c2ccccc2)CCC(=O)NC1=O (stereo unspecified)', 84),
  ('FC(F)(F)c1ccc(Cl)cc1', -33),
  ('CC1(C)O[C@H]2CC(=O)OC[C@]23[C@H]2CC[C@@]4(C)[C@H](c5ccoc5)OC(=O)[C@H]5O[C@]54[C@]2(C)C(=O)C[C@@H]13', 298);

(Q) Return value of melting point for input "CC(=O)c1cc(C)ccc1O" , no commentary.
(A) 50

(Q) Identify measured melting point associated with "Oc1cccc(Cl)c1O"
(A) 48.5

(Q) Give recorded melting point. "Cc1ccc2c(ccc3cc4ccccc4cc32)c1"
(A) 156

###

Listed here: items and their measured melting point.
Just the number in °C, nothing appended.

INSERT INTO assay_data (smiles_code, result_value) VALUES
  ('CCCC(=O)OCC', -98),
  ('Cc1[nH]c(C)c(C)c1C', 111),
  ('c1ccc2cc3c(cc2c1)-c1cccc2cccc-3c12', 217),
  ('Nc1ccc(Oc2ccccc2)cc1', 83),
  ('COC1=CC(=O)C[C@@H](C)[C@]12Oc1c(Cl)c(OC)cc(OC)c1C2=O', 220);

(Q) Fill in reported melting point for this entry: "CCNC(=O)C(=O)NCC"
(A) 175

(Q) Tell us which melting point value is on record for "CC"
(A) -183

(Q) Identify measured melting point corresponding to "O=C(O)CS(=O)(=O)O"
(A) 85

###

Use 20 °C as the dividing line for melting point, with the line itself on the t side and lower values as f.

INSERT INTO results (molecule, class_label) VALUES
  ('CC1CS1 (stereo unspecified)', 'f'),
  ('CCCCCCCN', 'f'),
  ('COc1ccc2[nH]cc(CCN)c2c1', 't'),
  ('COC(=O)C=Cc1ccccc1', 't'),
  ('NS(=O)(=O)c1ccc(SCCO)c(F)c1', 't');

(Q) Textbook exercise: given the entry "O=[N+]([O-])c1ccc2c(c1)oc1ccccc12" , state whether its melting point is greater than or equal to 20 °C.
(A) t

(Q) Check if melting point >= 20 °C (inclusive). Item: "CCCCCC(=O)O[C@]1(C(C)=O)CC[C@H]2[C@@H]3CCC4=CC(=O)CC[C@@H]4[C@H]3CC[C@@]21C"
(A) t

(Q) Entry "CC(C)[C@@H]1CCCCC1=O" : is its melting point no less than 20 °C?
(A) t

(Q) Answer whether melting point of "COc1ccc2c(C(=O)c3ccc(Cl)cc3)c(C)n(CC(=O)O)c2c1" is greater than or equal to 20 °C.
(A) t

(Q) Determine whether measured melting point meets or exceeds 20 °C for "NC(=O)c1cccnc1"
(A) t

###

result.type: log10 vapour pressure (mmHg)
The answer should be written as a number, with no unit following it.

INSERT INTO assay_data (molecule, result_value) VALUES
  ('CCC(C)C(C)C (centres undefined)', 1.84),
  ('CCc1ccc(C)c(C)c1', -0.126),
  ('c1cc(-c2ccncc2)ccn1', -4.25),
  ('O=C(O)CS', -1.06),
  ('N#Cc1ccccc1', -0.115);

(Q) Give a short answer stating reported log10 vapour pressure (mmHg) for "CSc1nnc(C(C)(C)C)c(=O)n1N" .
(A) -6.36

(Q) Provide log10 vapour pressure (mmHg) value for the following molecule: "Fc1ccc(F)cc1"
(A) 1.81

(Q) Fill in log10 vapour pressure (mmHg) for record "O=[N+]([O-])c1ccccc1Nc1ccccc1"
(A) -5

(Q) Indicate its recorded log10 vapour pressure (mmHg); the molecule in question is "CC(C)CO[N+](=O)[O-]"
(A) 0.919

###

A collection of molecules and their measured melting point
Reply with just the number (in °C).

Solved cases below.
INSERT INTO results (molecule, result_value) VALUES
  ('CC(C)(C)CO', 52.5),
  ('O=C1C=CC(=O)N1', 94),
  ('C[Si](C)(C)Oc1ccccc1', -55),
  ('NCc1ccc(Br)cc1', 20);

Proceeding to the next molecule to report its melting point.
(Q) Give reported melting point value for "CC1=CC(C)(C)Nc2ccccc21"
(A) 26.5

###

result.type: melting point (°C)
Hi! Could you send only the number? It should be in °C, unit omitted.

INSERT INTO assay_data (molecule, result_type, unit, result_value) VALUES
  ('O=c1c2cc(F)ccc2nc(-n2cncn2)n1-c1ccc(Cl)cc1Cl', 'melting point', '°C', 192);

(Q) Quote melting point reported for "C/C=C/C=O" please.
(A) -76.2

(Q) Dear colleague, please send me the reported melting point for Cc1cc(CC(C)CC(C)(C)C)n(O)c(=O)c1 (centres undefined) when you can.
(A) 108

(Q) State, in one line, measured melting point of "CN=C(O)Sc1ccc(OS(C)(=O)=O)cc1"
(A) 137

(Q) Item "CCC(=O)c1ccc(Br)cc1" : provide melting point
(A) 48

(Q) Report measured melting point; entry is CCC(C)c1cc([N+](=O)[O-])cc([N+](=O)[O-])c1O (centres undefined)
(A) 40

(Q) Quick one: give measured melting point for "Cc1ccc2ccc3ccc(C)nc3c2n1"
(A) 160

(Q) Using known records, supply melting point for "Cc1cc(C)c(C(C)C)cc1C"
(A) 21

(Q) Output melting point of "CCOC(=O)c1cnc2cc(OCC(C)C)c(OCC(C)C)cc2c1O"
(A) 290

(Q) Let me know recorded melting point for "CCC(C)=NO" , thanks.
(A) -29.5

(Q) # return recorded melting point for input "CC(=O)Nc1ccc([N+](=O)[O-])cc1"
(A) 216

(Q) Give the measured melting point for "Cc1ncc2n1-c1ccc(Cl)cc1C(c1ccccc1F)=NC2"
(A) 159

(Q) Answer with the recorded melting point for the molecule listed here: "CC(C)(C)[N+](=O)[O-]"
(A) 26.2

(Q) Give melting point for the following molecule: "c1ccc(-c2ccncc2)cc1"
(A) 77.5

(Q) Name the recorded melting point of the item "C=C(C)C=O" in your answer.
(A) -81

(Q) Hello, please tell me recorded melting point for this one: "O=Cc1ccc2ccccc2n1"
(A) 71

(Q) Item "CC=C(CC)C(=O)NC(N)=O" : provide melting point
(A) 198
